- Setup conditions: pH 2.7
Marks after values point to notes of the source that are not given here.

Compound: OC(Cc1nc(Cl)ccc1Cl)(Cn1cncn1)C1(Cl)CC1 (racemic) [XXI-101]
LogP: 2.73^[a]
//
Compound: CC(C)(C)C(O)(Cc1ccncc1F)Cn1ncnc1S (stereo not drawn) [Example I-18]
LogP: 1.79^[a]
//
Compound: CC(C)(C)C(O)(Cc1nc(Cl)ccc1Cl)Cn1cncn1 (racemic) [XXI-130]
LogP: 2.82^[a]
//
Compound: OC(Cc1cccc(Cl)c1)(Cc1ccnc(Cl)c1F)Cn1cncn1 (stereo not drawn) [XXI-93]
LogP: 2.02^[a]
//
Compound: CC(C)(C)C(O)(Cc1ccnc(Cl)c1)Cn1cncn1 (racemic) [XXI-112]
LogP: 1.93^[a]
//
Compound: OC(Cc1ccnc(Cl)c1F)(Cn1cncn1)c1cccnc1Cl (racemic) [XXI-64]
LogP: 1.54^[a]
//
Compound: OC(Cc1cc(Oc2ccc(Cl)cc2)nnc1Cl)(Cn1cncn1)C1(Cl)CC1 (racemic) [XXI-60]
LogP: 3.08^[a]
//
Compound: CC(C)(C)C(O)(Cc1cccnc1Cl)Cn1cncn1 (stereo not drawn) [XXI-10]
LogP: 1.94^[a]
//
Compound: OC(Cc1ccnc(Cl)c1F)(Cn1cncn1)C1(Cl)CC1 (racemic) [XXI-65]
LogP: 2.02^[a]

* * *

- Setup conditions: method [a]: pH 2.7; Table 4, formula (XII)
Recorded measurements of LogP, one per entry
Measurement kind: LogP

Compound: CC(C)(C)C1(Cc2ccncc2F)CO1 (centres unmarked) [XII-12]
Measurement kind: LogP
Value: 2.31^[a]

Compound: CC(C)C(C)(C)C1(Cc2ccncc2F)CO1 (centres unmarked) [XII-17]
Measurement kind: LogP
Value: 3.19^[a]

Compound: CCC(C)(C)C1(Cc2c(Cl)cncc2Cl)CO1 (centres unmarked) [XII-54]
Measurement kind: LogP
Value: 4.41^[a]

Compound: CCC(C)(C)C1(Cc2cc(Cl)ncc2F)CO1 (centres unmarked) [XII-27]
Measurement kind: LogP
Value: 3.89^[a]

Compound: CC(C)C(C)(C)C1(Cc2cc(Cl)ncc2F)CO1 (centres unmarked) [XII-24]
Measurement kind: LogP
Value: 4.34^[a]

Compound: CC(C)(C)C1(Cc2cnc3ccccc3c2)CO1 (centres unmarked) [XII-7]
Measurement kind: LogP
Value: 1.86^[a]

Compound: CC(C)C(C)(C)C1(Cc2ccncc2Cl)CO1 (centres unmarked) [XII-30]
Measurement kind: LogP
Value: 3.75^[a]

Compound: CC(C)(C)C1(Cc2cccnc2Cl)CO1 (centres unmarked) [XII-9]
Measurement kind: LogP
Value: 2.97

Compound: CC(C)C(C)(C)C1(Cc2ccnc(Cl)c2)CO1 (centres unmarked) [XII-21]
Measurement kind: LogP
Value: 3.94^[a]

Compound: CCC(C)(C)C1(Cc2cc(F)ncc2Cl)CO1 (centres unmarked) [XII-40]
Measurement kind: LogP
Value: 4.17^[a]

Compound: CC(C)(C)C1(Cc2cc(Cl)ncc2F)CO1 (centres unmarked) [XII-28]
Measurement kind: LogP
Value: 3.42^[a]

Compound: CC(C)(C)C1(Cc2ccnc(Cl)c2F)CO1 (centres unmarked) [XII-46]
Measurement kind: LogP
Value: 3.37^[a]

Compound: CC(C)(C)C1(Cc2ccncc2Cl)CO1 (centres unmarked) [XII-10]
Measurement kind: LogP
Value: 2.80^[a]

Compound: CC(C)(C)C1(Cc2ncc(Cl)cc2Cl)CO1 (centres unmarked) [XII-6]
Measurement kind: LogP
Value: 4.06^[a]
